Every entry's value here was drawn from patent US6479435B1.

Tested on: soybean (Glycine max L., var. Pella 86, SOY)
Test: Post-emerge greenhouse test, crop damage rating
Type: in vivo
Parameters: key: 0-100 scale: 0 = no damage, 100 = complete death of all plants
Conditions: rate 500 g ai/ha, 14 days after application, scale 0-100
Experimental: A standard greenhouse herbicide activity screening system was used to evaluate the herbicidal efficacy and crop safety of these test compounds. […] At 14 days after application of the test materials, phytotoxicity ratings were recorded. […]

[
  {
    "MOLECULAR STRING": "COc1cc(OC)nc(Oc2cc(-n3c(=O)n4n(c3=S)CCCC4)c(F)cc2Cl)n1",
    "crop damage rating SOY": 70
  },
  {
    "MOLECULAR STRING": "N#Cc1ccc(Oc2cc(-n3c(=O)n4n(c3=S)CCCC4)c(F)cc2Cl)nc1",
    "crop damage rating SOY": 95
  },
  {
    "MOLECULAR STRING": "O=c1n(-c2cc(Oc3nccc(C(F)(F)F)n3)c(Cl)cc2F)c(=S)n2n1CCCC2",
    "crop damage rating SOY": 100
  },
  {
    "MOLECULAR STRING": "O=c1n(-c2cc(Oc3cccc(Cl)n3)c(Cl)cc2F)c(=S)n2n1CCCC2",
    "crop damage rating SOY": 0
  },
  {
    "MOLECULAR STRING": "COc1nc(OC)nc(Oc2cc(-n3c(=O)n4n(c3=S)CCCC4)c(F)cc2Cl)n1",
    "crop damage rating SOY": 90
  },
  {
    "MOLECULAR STRING": "O=c1n(-c2cc(Oc3cccc(F)n3)c(Cl)cc2F)c(=S)n2n1CCCC2",
    "crop damage rating SOY": 90
  },
  {
    "MOLECULAR STRING": "CC(=O)Nc1ccc(Oc2cc(-n3c(=O)n4n(c3=S)CCCC4)c(F)cc2Cl)c(C(F)(F)F)c1",
    "crop damage rating SOY": 20
  },
  {
    "MOLECULAR STRING": "O=c1n(-c2cc(Oc3nc(F)c(F)cc3F)c(Cl)cc2F)c(=S)n2n1CCCC2",
    "crop damage rating SOY": 90
  }
]

* * *

Listing: crop damage rating CORN of selected compounds
test system: field corn (Zea mays L., var. Dekalb 535, CORN); assay: Pre-emerge greenhouse test, crop damage rating; assay type: in vivo; conditions: 500 g ai/ha, 14 days after application, rating scale 0-100
PROPERTY LABEL: crop damage rating CORN

[
  {
    "COMPOUND": "Cc1nn(-c2cc(Oc3ncccn3)c(Cl)cc2F)c(=O)n1C(F)F [Compound 3-1]",
    "REPORTED MEASUREMENT": 100
  },
  {
    "COMPOUND": "Cn1nc(-c2cc(Oc3cccc(F)n3)c(Cl)cc2F)c(Cl)c1C(F)(F)F [Compound 1-5]",
    "REPORTED MEASUREMENT": 30
  },
  {
    "COMPOUND": "CCN1CC(=O)N(c2cc(Oc3ncccc3C(F)(F)F)c(Cl)cc2F)C1=O [Compound 8-1]",
    "REPORTED MEASUREMENT": 0
  },
  {
    "COMPOUND": "O=c1n(-c2cc(Oc3ccc([N+](=O)[O-])cc3)c(Cl)cc2F)c(=S)n2n1CCCC2 [Compound 8-8]",
    "REPORTED MEASUREMENT": 0
  },
  {
    "COMPOUND": "O=c1n(-c2cc(Oc3ccc([N+](=O)[O-])cc3C(F)(F)F)c(Cl)cc2F)c(=S)n2n1CCCC2 [Compound 8-14]",
    "REPORTED MEASUREMENT": 0
  },
  {
    "COMPOUND": "COc1cc(OC)nc(Oc2cc(-n3nnn(CCCF)c3=O)c(F)cc2Cl)n1 [Compound 6-15]",
    "REPORTED MEASUREMENT": 100
  },
  {
    "COMPOUND": "Cn1nc(-c2cc(Oc3ncccc3C(F)(F)F)c(Cl)cc2F)c(Cl)c1C(F)(F)F [Compound 1-2]",
    "REPORTED MEASUREMENT": 90
  },
  {
    "COMPOUND": "Nc1ccc(Oc2cc(-n3c(=O)n4n(c3=S)CCCC4)c(F)cc2Cl)cc1 [Compound 8-9]",
    "REPORTED MEASUREMENT": 0
  }
]

* * *

Listing: SOY crop damage rating of selected compounds
test system: soybean (Glycine max L., var. Pella 86, SOY); experiment: Pre-emerge greenhouse test, crop damage rating; format: in vivo; set-up: key: 0 = no damage, 100 = complete death of all plants; conditions: Rate 125 g al/ha, 14 days after application, rating scale 0-100

[
  {
    "COMPOUND": "Nn1c(C(F)(F)F)cc(=O)n(-c2cc(Oc3cccc(F)n3)c(Cl)cc2F)c1=O",
    "TARGET DESC": "soybean (Glycine max L., var. Pella 86, SOY)",
    "SOY crop damage rating": 80
  },
  {
    "COMPOUND": "N#Cc1cccnc1Oc1cc(-n2c(=O)n3n(c2=S)CCCC3)c(F)cc1Cl",
    "TARGET DESC": "soybean (Glycine max L., var. Pella 86, SOY)",
    "SOY crop damage rating": 20
  },
  {
    "COMPOUND": "CCOC(=O)C(C)Oc1ccc(Oc2cc(-n3c(=O)n4n(c3=O)CCCC4)c(F)cc2Cl)c([N+](=O)[O-])c1 (centres unmarked)",
    "TARGET DESC": "soybean (Glycine max L., var. Pella 86, SOY)",
    "SOY crop damage rating": 0
  },
  {
    "COMPOUND": "O=c1n(-c2cc(Oc3nc(Cl)ccc3C(F)(F)F)c(Cl)cc2F)c(=S)n2n1CCCC2",
    "TARGET DESC": "soybean (Glycine max L., var. Pella 86, SOY)",
    "SOY crop damage rating": 0
  },
  {
    "COMPOUND": "COc1cc(OC)nc(Oc2cc(-n3c(=O)n4n(c3=S)CCCC4)c(F)cc2Cl)n1",
    "TARGET DESC": "soybean (Glycine max L., var. Pella 86, SOY)",
    "SOY crop damage rating": 0
  },
  {
    "COMPOUND": "O=c1n(-c2cc(Oc3ncccc3[N+](=O)[O-])c(Cl)cc2F)c(=S)n2n1CCCC2",
    "TARGET DESC": "soybean (Glycine max L., var. Pella 86, SOY)",
    "SOY crop damage rating": 20
  },
  {
    "COMPOUND": "CCOC(=O)C(C)Oc1ccc(Oc2cc(-n3c(=O)n4n(c3=S)CCCC4)c(F)cc2Cl)c([N+](=O)[O-])c1 (centres unmarked)",
    "TARGET DESC": "soybean (Glycine max L., var. Pella 86, SOY)",
    "SOY crop damage rating": 0
  },
  {
    "COMPOUND": "N#Cc1ccc(Oc2cc(-n3c(=O)n4n(c3=S)CCCC4)c(F)cc2Cl)nc1",
    "TARGET DESC": "soybean (Glycine max L., var. Pella 86, SOY)",
    "SOY crop damage rating": 50
  },
  {
    "COMPOUND": "CC(C)S(=O)(=O)c1cccnc1Oc1cc(-n2c(=O)n3n(c2=S)CCCC3)c(F)cc1Cl",
    "TARGET DESC": "soybean (Glycine max L., var. Pella 86, SOY)",
    "SOY crop damage rating": 50
  },
  {
    "COMPOUND": "O=c1n(-c2cc(Oc3cccc(F)n3)c(Cl)cc2F)c(=S)n2n1CCCC2",
    "TARGET DESC": "soybean (Glycine max L., var. Pella 86, SOY)",
    "SOY crop damage rating": 0
  },
  {
    "COMPOUND": "CCOC(=O)C(C)Oc1ccc(Oc2cc(-n3c(=O)n4n(c3=S)CCCC4)c(F)cc2Cl)c(N)c1 (centres unmarked)",
    "TARGET DESC": "soybean (Glycine max L., var. Pella 86, SOY)",
    "SOY crop damage rating": 0
  },
  {
    "COMPOUND": "O=c1n(-c2cc(Oc3nccc(C(F)(F)F)n3)c(Cl)cc2F)c(=S)n2n1CCCC2",
    "TARGET DESC": "soybean (Glycine max L., var. Pella 86, SOY)",
    "SOY crop damage rating": 80
  },
  {
    "COMPOUND": "CCOC(=O)C(C)Oc1cc([N+](=O)[O-])c(Oc2cc(-n3c(=O)n4n(c3=S)CCCC4)c(F)cc2Cl)cc1Cl (centres unmarked)",
    "TARGET DESC": "soybean (Glycine max L., var. Pella 86, SOY)",
    "SOY crop damage rating": 0
  },
  {
    "COMPOUND": "Nc1cccnc1Oc1cc(-n2c(=O)n3n(c2=S)CCCC3)c(F)cc1Cl",
    "TARGET DESC": "soybean (Glycine max L., var. Pella 86, SOY)",
    "SOY crop damage rating": 0
  }
]
